These data points were gathered from the OPERA property sets (Mansouri et al. 2018).

value.kind: logP
Give the value as a plain number.

Q: Entry under review: Cc1cccn2c(=O)ccnc12 . Reported logP?
A: 0.79

Q: Name the recorded logP for C=C[C@H]1CN2CCC1C[C@@H]2[C@@H](O)c1ccnc2ccccc12 (stereo partly drawn) .
A: 2.68

Q: Quick one: logP of FC(F)(F)c1nc2c(Cl)c(Cl)c(Cl)cc2[nH]1 ?
A: 3.87

Q: Would you kindly share the measured logP for Cc1ncc([N+](=O)[O-])n1CC(O)Cn1c([N+](=O)[O-])cnc1C ?
A: 0.31

Q: // query logP value for entry CCC(O)C(CC(C)N(C)C)(c1ccccc1)c1ccccc1 (stereo not drawn)
A: 4.27

Q: Tell me the measured logP of CN1C(=O)NC(c2ccccc2)(c2ccccc2)C1=O , please.
A: 2.28

Q: I'd like to know its logP. The compound in question is Cc1cc(C(=O)O)ccc1N
A: 1.37

Q: Could you tell me which logP is on file for CCCNC(=O)c1ccco1 ?
A: 1.1

Q: Reported logP for CC(C)OC(=O)C(C(=O)OC(C)C)=C1SC=CS1 : what is it?
A: 3.75

Q: May I ask what logP has been recorded for CCCCCCNC(=O)n1cc(F)c(=O)[nH]c1=O ?
A: 2.63

Q: Given the entry O=C1N[C@@H](Cc2ccccc2)C(=O)N[C@H]1Cc1ccccc1 , report its measured logP.
A: 1.59

Q: // lookup logP for COC(=O)Nc1nc2cc(C(=O)c3ccccc3)ccc2[nH]1
A: 2.83

Q: Which logP is reported for this compound? CC(C)(C)C(COc1ccc(I)cc1)OC(=O)n1ccnc1 (stereo not drawn)
A: 4.3

Q: What logP value was documented for this compound, O=C1CC2(CCCC2)C(=O)N1Oc1ccccc1 ?
A: 1.77

Q: Form field: reported logP of CCCCN(C)N=Nc1ccc(C(N)=O)cc1
A: 2.46

Q: State the recorded logP for this entry: CC(C)(C)C(COc1ccc(Br)cc1)OC(=S)n1ccnc1 (stereo not drawn)
A: 5.11

Q: // returns reported logP for input CC1c2nc3ccccc3c(=O)n2CN1CCO (stereo not drawn)
A: 0.46

Q: Could you share which logP value was measured for CC(C)(C)C(COc1ccc(Cl)cc1)OC(=O)n1ccnc1 (stereo not drawn) ?
A: 4.19

Q: Name the recorded logP for Nc1ccc(C(F)(F)F)cc1 .
A: 1.95

Q: So what does the record say about logP for Nc1nc(=O)c2[nH]c(N)c(Cc3ccsc3)c2[nH]1 ?
A: 1.08

Q: Fill in the blank: the reported logP of O=C(O)COc1cc(Cl)cc(Cl)c1 is ____.
A: 2.84

Q: Requested read-out: logP. Entry: Cc1c(O)c(=O)ccn1CCC(=O)N(C)C
A: -1.16

Q: Which logP reading was recorded for the compound Nc1cccc(Cl)c1Cl ?
A: 2.82

Q: Item ClC(Cl)Br has what recorded logP?
A: 2

Q: Requested read-out: logP. Entry: O=C(Nc1ncnc2c1ncn2[C@@H]1O[C@H](CO)C[C@@H]1F)c1ccccc1
A: 0.73

Q: Bench note: what logP did NS(=O)(=O)c1ccc(Cl)c([N+](=O)[O-])c1 show?
A: 0.66

Q: Endpoint output: logP of CCCc1ccc(OCC(OC(=O)n2ccnc2)C(C)(C)C)cc1 (stereo not drawn) . Value?
A: 4.73

Q: Reported logP for Cc1ccccc1C=O : what is it?
A: 2.26

Q: Quick one: logP for CCCCSC(=Nc1cccnc1)SCc1ccc(C(C)(C)C)cc1 ?
A: 7

Q: Reported logP for CNC12CCCCC1CSc1ccccc12 (stereo not drawn) : what is it?
A: 3.88

Q: Item NC(=O)COc1ccc(OCCNCC(O)COc2ccccc2)cc1 (stereo not drawn) has what recorded logP?
A: 1.1

Q: Data request, read-out logP, for COC(=O)c1c(C)[nH]c(-c2ccc(Cl)cn2)c1C(=O)OC
A: 2.7

Q: Consider the compound CN(Cc1ccc(Br)cc1)N=O and give its measured logP.
A: 1.57
